- experiment summary: Human HepG2 cell viability assay in 384 well format
- Assay type: toxicity, cell-based
- Set-up: dose 125 nL, time 70.5 hour; concentration not given beside the values
- condition description: HepG2 cells, read-out: Inhibition
measurement kind: cytotoxicity at 70.5 h (%)
Response body: numeric value in %, unit text excluded.

Guide cases for cytotoxicity at 70.5 h, answers given:
Lookup result for O=C(Cn1c(=O)n(Cc2ccco2)c2ncccc21)Nc1ccccn1 ; measured cytotoxicity at 70.5 h: -4.41

Lookup result for Cc1cc(CNc2cc(Cl)ccc2C)no1 ; measured cytotoxicity at 70.5 h: -11.6

Lookup result for O=C(CCc1c[nH]cn1)N1CC[C@@H](c2ccc3ccccc3c2)[C@H](O)C1 ; measured cytotoxicity at 70.5 h: -8.55

Lookup result for Cc1ccc(OC(C)CNC(=O)c2c[nH]nn2)cc1 (stereo unspecified) ; measured cytotoxicity at 70.5 h: -7.76

Lookup result for Nc1nccc(NCc2cc3n(n2)CCCN(C2CCCCC2)C3)n1 ; measured cytotoxicity at 70.5 h: -1.68

More entries:
Lookup result for Cc1nnc(C(C)N2CCCN(Cc3noc(C4CC4)n3)CC2)o1 (stereo unspecified) ; measured cytotoxicity at 70.5 h: 13.7

Lookup result for COc1cccc(NC(=O)NCC(Cc2cnn(C)c2)C(N)=O)c1 (stereo unspecified) ; measured cytotoxicity at 70.5 h: -7.2

Lookup result for CCN1CCN(C(=O)CCc2c(C)noc2Cl)CC1 ; measured cytotoxicity at 70.5 h: -13.8
